All values here come from ChEMBL document CHEMBL1131469.

- assay_target: Integrin alpha-IIb/beta-3 (Homo sapiens, UniProt P05106+P08514)
- Sequence (P05106 27-788 limits assumed): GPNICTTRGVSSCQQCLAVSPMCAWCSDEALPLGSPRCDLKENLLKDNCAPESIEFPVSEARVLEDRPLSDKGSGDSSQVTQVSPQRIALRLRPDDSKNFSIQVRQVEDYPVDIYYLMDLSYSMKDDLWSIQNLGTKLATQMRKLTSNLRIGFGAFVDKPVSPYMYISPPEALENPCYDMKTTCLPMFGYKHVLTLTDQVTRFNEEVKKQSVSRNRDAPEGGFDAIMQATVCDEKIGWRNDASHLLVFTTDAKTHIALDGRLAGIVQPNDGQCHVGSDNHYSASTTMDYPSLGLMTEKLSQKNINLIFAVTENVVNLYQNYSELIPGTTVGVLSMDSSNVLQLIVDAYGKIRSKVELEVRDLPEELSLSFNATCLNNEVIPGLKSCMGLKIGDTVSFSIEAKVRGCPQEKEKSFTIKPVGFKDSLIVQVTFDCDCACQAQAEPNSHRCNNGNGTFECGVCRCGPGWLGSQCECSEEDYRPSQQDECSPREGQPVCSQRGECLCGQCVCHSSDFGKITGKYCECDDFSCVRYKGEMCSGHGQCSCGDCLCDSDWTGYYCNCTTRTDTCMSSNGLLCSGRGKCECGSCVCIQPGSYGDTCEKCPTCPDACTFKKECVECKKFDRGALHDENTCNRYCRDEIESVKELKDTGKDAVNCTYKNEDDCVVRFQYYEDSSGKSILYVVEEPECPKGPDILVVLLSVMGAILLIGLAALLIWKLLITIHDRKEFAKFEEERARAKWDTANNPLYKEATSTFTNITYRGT
- Sequence (P08514 32-887 limits assumed): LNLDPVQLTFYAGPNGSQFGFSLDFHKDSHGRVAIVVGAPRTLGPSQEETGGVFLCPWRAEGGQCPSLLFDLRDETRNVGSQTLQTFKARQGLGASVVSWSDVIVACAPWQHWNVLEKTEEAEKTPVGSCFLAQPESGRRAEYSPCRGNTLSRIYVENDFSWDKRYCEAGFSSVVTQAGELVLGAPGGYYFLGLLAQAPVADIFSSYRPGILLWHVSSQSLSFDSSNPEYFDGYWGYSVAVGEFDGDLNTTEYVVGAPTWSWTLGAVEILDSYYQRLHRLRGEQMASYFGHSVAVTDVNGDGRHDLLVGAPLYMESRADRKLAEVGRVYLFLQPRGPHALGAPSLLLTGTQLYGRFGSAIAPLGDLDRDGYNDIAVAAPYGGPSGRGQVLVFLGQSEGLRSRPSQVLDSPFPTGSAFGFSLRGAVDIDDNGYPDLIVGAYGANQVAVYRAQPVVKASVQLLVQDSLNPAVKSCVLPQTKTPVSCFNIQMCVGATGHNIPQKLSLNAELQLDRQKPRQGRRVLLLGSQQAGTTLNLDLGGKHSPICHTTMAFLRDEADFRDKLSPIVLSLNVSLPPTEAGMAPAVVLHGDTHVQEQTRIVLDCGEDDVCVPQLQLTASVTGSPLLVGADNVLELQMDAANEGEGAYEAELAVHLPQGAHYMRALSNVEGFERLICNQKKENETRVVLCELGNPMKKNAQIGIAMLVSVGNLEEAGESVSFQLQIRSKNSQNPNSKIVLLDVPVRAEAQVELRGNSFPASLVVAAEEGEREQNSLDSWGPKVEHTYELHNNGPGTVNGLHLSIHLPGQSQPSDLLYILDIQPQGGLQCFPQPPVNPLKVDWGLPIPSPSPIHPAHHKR
- Sequence (P08514 891-1039 limits assumed): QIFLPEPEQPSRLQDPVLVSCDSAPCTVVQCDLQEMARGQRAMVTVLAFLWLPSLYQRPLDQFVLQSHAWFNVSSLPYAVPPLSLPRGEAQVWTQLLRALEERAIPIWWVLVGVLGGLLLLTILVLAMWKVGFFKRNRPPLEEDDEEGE
- assay_protocol: Ability to inhibit binding of biotin-labeled human fibrinogen to immobilized fibrinogen receptor purified from human erythroleukemia (HEL) cells.
Peptide text beside a SMILES is read from it.
property_name: IC50 (nM)

| molecule | measured_result |
| --- | --- |
| CN(C)C(N)=Nc1ccc(C(=O)NCC(=O)N2CCN(CC(=O)O)C(=O)[C@@H]2CC(=O)O)cc1 | 210 |

[1] N=C(N)c1ccc(C(=O)NCC(=O)N2CCN(CCC(=O)O)C(=O)[C@@H]2CC(=O)O)cc1
[2] N=C(N)NCCC[C@H](N)C(=O)NCC(=O)N[C@@H](CC(=O)O)C(=O)N[C@@H](Cc1ccccc1)C(=O)O (H-RGDF-OH)
When the recorded IC50 values are compared, which is smaller: that of 1 or that of 2 ? State your choice using its label. 1

====

- assay_target: Integrin alpha-IIb/beta-3 (Homo sapiens, UniProt P05106+P08514)
- assay_protocol: Ability to inhibit binding of biotin-labeled human fibrinogen to immobilized fibrinogen receptor purified from human erythroleukemia (HEL) cells.
pIC50: −log10 of the molar value.
property_name: pIC50

| molecule | pIC50 |
| --- | --- |
| N=C(N)c1ccc(C(=O)NCC(=O)N2CCN(CC(=O)O)C(=O)[C@@H]2CCC(=O)O)cc1 | 9.68 |
| COC(=O)CC[C@H]1C(=O)N(CC(=O)O)CCN1C(=O)CNC(=O)c1ccc(C(=N)N)cc1 | 9.54 |
| N=C(N)c1ccc(C(=O)NCC(=O)N2CCN(CC(N)=O)C(=O)[C@@H]2CC(=O)O)cc1 | 6.48 |

[P] N=C(N)c1cccc(C(=O)NCC(=O)N2CCN(CC(=O)O)C(=O)[C@@H]2CC(=O)O)c1
[Q] N=C(N)NCC1CCC(C(=O)NCC(=O)N2CCN(CC(=O)O)C(=O)[C@@H]2CC(=O)O)CC1 (some centres not stated)
Endpoint returns the identifier whose pIC50 is numerically larger, either P or Q . Mark your selection by writing its label. Q
(Q: 7.70, P: 6.89)

[1] COC(=O)C[C@@H]1C(=O)N(CC(=O)O)CCN1C(=O)CNC(=O)c1ccc(C(=N)N)cc1
[2] N=C(N)c1ccc(C(=O)NCC(=O)N2CCN(CC(=O)O)C(=O)[C@@H]2Cc2ccccc2)cc1
Would you mind telling me which has the lower recorded pIC50 between 1 and 2 ? Bench note: the answer is the label of the chosen record. 1
